- Target entity: hT1R1/hT1R3 umami receptor (Homo sapiens, UniProt Q7RTX0+Q7RTX1)
- Construct: expressed in transfected cells; host or cells: HEK293 derivative stably expressing Gα15, clone I-17, expression induced with mifepristone
- Sequence (Q7RTX1 21-841): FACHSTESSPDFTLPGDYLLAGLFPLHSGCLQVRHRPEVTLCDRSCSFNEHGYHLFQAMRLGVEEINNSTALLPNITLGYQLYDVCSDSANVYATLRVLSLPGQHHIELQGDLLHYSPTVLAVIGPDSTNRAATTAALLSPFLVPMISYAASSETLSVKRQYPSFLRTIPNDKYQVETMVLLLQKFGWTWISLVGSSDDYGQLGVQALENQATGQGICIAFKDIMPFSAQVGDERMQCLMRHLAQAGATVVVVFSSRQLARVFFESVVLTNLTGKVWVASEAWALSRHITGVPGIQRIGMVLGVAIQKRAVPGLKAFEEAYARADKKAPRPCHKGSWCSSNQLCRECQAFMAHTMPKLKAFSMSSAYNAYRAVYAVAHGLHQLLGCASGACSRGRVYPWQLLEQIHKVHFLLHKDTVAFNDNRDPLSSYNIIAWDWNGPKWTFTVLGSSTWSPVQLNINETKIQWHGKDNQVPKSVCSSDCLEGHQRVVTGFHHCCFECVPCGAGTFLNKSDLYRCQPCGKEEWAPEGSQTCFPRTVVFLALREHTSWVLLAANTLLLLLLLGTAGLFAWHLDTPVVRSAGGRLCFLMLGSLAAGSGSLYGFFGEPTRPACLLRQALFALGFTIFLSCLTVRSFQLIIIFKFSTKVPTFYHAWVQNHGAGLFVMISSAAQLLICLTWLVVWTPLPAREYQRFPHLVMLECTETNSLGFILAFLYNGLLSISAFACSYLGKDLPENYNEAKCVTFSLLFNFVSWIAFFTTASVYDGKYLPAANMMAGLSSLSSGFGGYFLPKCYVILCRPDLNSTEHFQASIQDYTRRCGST
- Sequence (Q7RTX0 21-852): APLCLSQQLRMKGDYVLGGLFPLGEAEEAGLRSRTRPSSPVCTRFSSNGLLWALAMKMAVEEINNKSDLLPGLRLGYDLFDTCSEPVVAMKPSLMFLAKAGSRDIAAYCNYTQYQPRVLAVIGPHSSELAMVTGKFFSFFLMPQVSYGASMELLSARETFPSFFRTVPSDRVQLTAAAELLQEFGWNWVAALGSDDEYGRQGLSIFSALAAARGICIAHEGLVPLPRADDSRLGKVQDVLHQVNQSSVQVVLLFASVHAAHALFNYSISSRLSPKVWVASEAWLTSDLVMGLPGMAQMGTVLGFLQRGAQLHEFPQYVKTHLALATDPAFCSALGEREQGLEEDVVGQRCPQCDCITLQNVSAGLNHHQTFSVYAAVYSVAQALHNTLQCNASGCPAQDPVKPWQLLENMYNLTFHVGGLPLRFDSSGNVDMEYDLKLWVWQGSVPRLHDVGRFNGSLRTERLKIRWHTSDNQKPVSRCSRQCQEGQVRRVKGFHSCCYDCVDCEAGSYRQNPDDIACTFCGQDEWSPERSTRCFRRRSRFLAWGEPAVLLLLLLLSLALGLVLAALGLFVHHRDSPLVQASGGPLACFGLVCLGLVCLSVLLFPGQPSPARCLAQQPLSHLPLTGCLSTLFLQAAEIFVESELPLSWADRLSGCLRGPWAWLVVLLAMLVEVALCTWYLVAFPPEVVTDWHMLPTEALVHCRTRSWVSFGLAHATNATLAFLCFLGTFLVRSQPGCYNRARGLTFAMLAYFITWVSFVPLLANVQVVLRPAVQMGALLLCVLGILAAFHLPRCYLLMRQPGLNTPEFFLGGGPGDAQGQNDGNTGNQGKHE
- Protocol notes: In vitro hT1R1/hT1R3 umami taste receptor activation assay (FLIPR, dose response)
- Format: cell-based
- Conditions: read-out: EC50 for activation of a hT1R1/hT1R3 umami receptor expressed in an HEK293 cell line
Each record here notes measured pEC50.
When answering, recall that pEC50 equals minus log10 of the concentration in mol/L, and write that number alone.

CCCC(NC(=O)c1ccc2c(c1)OCO2)C(C)C (stereo not shown) [Example 3] : 6.21

Query: Request - read-out pEC50 | tested on hT1R1/hT1R3 umami receptor (Homo sapiens, UniProt Q7RTX0+Q7RTX1) | molecule COc1ccccc1CNC(=O)C(=O)NCCc1ccccn1 [Example 122]
Response: 6.47

These entries and their values trace back to patent US20060045953A1.
